Recorded HEK-Blue activity, +100 nM BP, DF-100,000 for the following binders
- TGT: T1, human IL-18 binding protein (human, UniProt O95998 31-194)
- T1 sequence (looked up): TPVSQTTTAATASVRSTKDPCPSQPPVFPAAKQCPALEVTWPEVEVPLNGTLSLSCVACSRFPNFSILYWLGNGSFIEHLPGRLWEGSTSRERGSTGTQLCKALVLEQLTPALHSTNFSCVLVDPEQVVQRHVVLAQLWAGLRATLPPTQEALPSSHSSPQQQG
- ASSAY_METHOD_TEXT: cell-based or functional assay; note: unit not given here
// return just the number, without any unit appended

Consider the reported HEK-Blue activity, +100 nM BP, DF-100,000 for these binders:
yeast display IL-18 variant T34I, S36V, D40I, N41M, K53G, S55Y (ligand) YFGKLESKLSVIRNLNDQVLFIDQGNRPLFEDMIDVDMRIMAPRTIFIISMYGDYQPRGMAVTISVKSEKISTLSSENKIISFKEMNPPDNIKDTKSDIIFFQRSVPGHDNKMQFESSSYEGYFLASEKERDLFKLILKKEDELGDRSIMFTVQNED: 0.1
yeast display IL-18 variant T34I, S36T, D40A, N41M, K53T, S55Y (ligand) YFGKLESKLSVIRNLNDQVLFIDQGNRPLFEDMIDTDMRAMAPRTIFIISMYTDYQPRGMAVTISVKSEKISTLSSENKIISFKEMNPPDNIKDTKSDIIFFQRSVPGHDNKMQFESSSYEGYFLASEKERDLFKLILKKEDELGDRSIMFTVQNED: 0.12

Fill in: HEK-Blue activity, +100 nM BP, DF-100,000 of yeast display IL-18 variant K53T, S55F (ligand) YFGKLESKLSVIRNLNDQVLFIDQGNRPLFEDMTDSDMRDNAPRTIFIISMYTDFQPRGMAVTISVKSEKISTLSSENKIISFKEMNPPDNIKDTKSDIIFFQRSVPGHDNKMQFESSSYEGYFLASEKERDLFKLILKKEDELGDRSIMFTVQNED is ___
0.18

What do you have for yeast display IL-18 variant K53T, S55A (ligand) YFGKLESKLSVIRNLNDQVLFIDQGNRPLFEDMTDSDMRDNAPRTIFIISMYTDAQPRGMAVTISVKSEKISTLSSENKIISFKEMNPPDNIKDTKSDIIFFQRSVPGHDNKMQFESSSYEGYFLASEKERDLFKLILKKEDELGDRSIMFTVQNED ?
0.95

Do the same for yeast display IL-18 variant K53T, S55P (ligand) YFGKLESKLSVIRNLNDQVLFIDQGNRPLFEDMTDSDMRDNAPRTIFIISMYTDPQPRGMAVTISVKSEKISTLSSENKIISFKEMNPPDNIKDTKSDIIFFQRSVPGHDNKMQFESSSYEGYFLASEKERDLFKLILKKEDELGDRSIMFTVQNED please
0.65

Also check yeast display IL-18 variant K53Y, S55G (ligand) YFGKLESKLSVIRNLNDQVLFIDQGNRPLFEDMTDSDMRDNAPRTIFIISMYYDGQPRGMAVTISVKSEKISTLSSENKIISFKEMNPPDNIKDTKSDIIFFQRSVPGHDNKMQFESSSYEGYFLASEKERDLFKLILKKEDELGDRSIMFTVQNED
0.16

Same thing, different binder: yeast display IL-18 variant K53W, S55A (ligand) YFGKLESKLSVIRNLNDQVLFIDQGNRPLFEDMTDSDMRDNAPRTIFIISMYWDAQPRGMAVTISVKSEKISTLSSENKIISFKEMNPPDNIKDTKSDIIFFQRSVPGHDNKMQFESSSYEGYFLASEKERDLFKLILKKEDELGDRSIMFTVQNED
0.16

Same for yeast display IL-18 variant K53G, S55V (ligand) YFGKLESKLSVIRNLNDQVLFIDQGNRPLFEDMTDSDMRDNAPRTIFIISMYGDVQPRGMAVTISVKSEKISTLSSENKIISFKEMNPPDNIKDTKSDIIFFQRSVPGHDNKMQFESSSYEGYFLASEKERDLFKLILKKEDELGDRSIMFTVQNED
0.15

Lookup yeast display IL-18 variant K53H, S55V (ligand) YFGKLESKLSVIRNLNDQVLFIDQGNRPLFEDMTDSDMRDNAPRTIFIISMYHDVQPRGMAVTISVKSEKISTLSSENKIISFKEMNPPDNIKDTKSDIIFFQRSVPGHDNKMQFESSSYEGYFLASEKERDLFKLILKKEDELGDRSIMFTVQNED
0.34

Same question for yeast display IL-18 variant E6D, S36F, K53T, S55M, R58K (ligand) YFGKLDSKLSVIRNLNDQVLFIDQGNRPLFEDMTDFDMRDNAPRTIFIISMYTDMQPKGMAVTISVKSEKISTLSSENKIISFKEMNPPDNIKDTKSDIIFFQRSVPGHDNKMQFESSSYEGYFLASEKERDLFKLILKKEDELGDRSIMFTVQNED please.
0.14

Next binder up: yeast display IL-18 variant L5W, S7Y, K53H, S55M (ligand) YFGKWEYKLSVIRNLNDQVLFIDQGNRPLFEDMTDSDMRDNAPRTIFIISMYHDMQPRGMAVTISVKSEKISTLSSENKIISFKEMNPPDNIKDTKSDIIFFQRSVPGHDNKMQFESSSYEGYFLASEKERDLFKLILKKEDELGDRSIMFTVQNED
0.12

Ok, now yeast display IL-18 variant K53N, S55M, R104S, P107A (ligand) YFGKLESKLSVIRNLNDQVLFIDQGNRPLFEDMTDSDMRDNAPRTIFIISMYNDMQPRGMAVTISVKSEKISTLSSENKIISFKEMNPPDNIKDTKSDIIFFQSSVAGHDNKMQFESSSYEGYFLASEKERDLFKLILKKEDELGDRSIMFTVQNED
0.12

Follow-up item: yeast display IL-18 variant K53S, S55Y (ligand) YFGKLESKLSVIRNLNDQVLFIDQGNRPLFEDMTDSDMRDNAPRTIFIISMYSDYQPRGMAVTISVKSEKISTLSSENKIISFKEMNPPDNIKDTKSDIIFFQRSVPGHDNKMQFESSSYEGYFLASEKERDLFKLILKKEDELGDRSIMFTVQNED
0.55
